Values were extracted from patent US10669272B2.

Please provide measured IC50 for the entries that follow.
Target: human DGKζ (Homo sapiens, UniProt Q13574)
Construct: TVMV protease cleavage site (C); Hexa-His (C); made in house; host or cells: Sf9 insect cells (baculovirus, Bac-to-Bac)
Sequence (Q13574 with tags, fused parts or gaps isoform Q13574-4): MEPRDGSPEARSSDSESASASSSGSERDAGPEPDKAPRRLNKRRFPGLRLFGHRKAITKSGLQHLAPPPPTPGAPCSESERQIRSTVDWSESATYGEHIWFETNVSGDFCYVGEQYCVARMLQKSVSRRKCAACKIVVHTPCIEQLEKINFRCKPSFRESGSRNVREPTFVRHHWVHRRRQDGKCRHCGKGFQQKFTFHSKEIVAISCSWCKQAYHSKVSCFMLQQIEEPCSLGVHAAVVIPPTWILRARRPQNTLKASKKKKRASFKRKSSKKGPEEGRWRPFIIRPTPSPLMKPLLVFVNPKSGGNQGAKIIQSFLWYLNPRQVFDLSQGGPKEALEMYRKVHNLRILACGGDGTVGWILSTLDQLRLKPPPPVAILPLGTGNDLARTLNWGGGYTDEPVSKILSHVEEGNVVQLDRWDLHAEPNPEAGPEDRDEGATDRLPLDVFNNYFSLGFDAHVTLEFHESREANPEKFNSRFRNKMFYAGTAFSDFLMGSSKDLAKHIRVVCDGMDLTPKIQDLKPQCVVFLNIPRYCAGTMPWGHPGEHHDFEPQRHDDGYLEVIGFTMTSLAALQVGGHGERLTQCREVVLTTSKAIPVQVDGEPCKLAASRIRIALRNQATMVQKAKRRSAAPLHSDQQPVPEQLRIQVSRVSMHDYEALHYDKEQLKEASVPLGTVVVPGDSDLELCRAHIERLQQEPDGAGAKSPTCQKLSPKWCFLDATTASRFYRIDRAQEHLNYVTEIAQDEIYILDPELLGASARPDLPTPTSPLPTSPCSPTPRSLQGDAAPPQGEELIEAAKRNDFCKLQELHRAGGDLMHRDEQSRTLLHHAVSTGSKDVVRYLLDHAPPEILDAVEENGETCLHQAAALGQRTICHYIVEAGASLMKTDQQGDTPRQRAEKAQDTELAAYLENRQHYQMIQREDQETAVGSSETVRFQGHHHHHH
Assay: DGKζ LIPGLO assay (extruded liposome substrate), in vitro DGK inhibition
Format: biochemical
Settings: liposome (LIPGLO) assay; read-out: DGKz LIPGLO IC50
One number for each entry, in µM.

>>> recorded_number("CC[C@H]1CN(C(c2ccc(F)cc2)c2cccc(C(F)(F)F)n2)[C@H](CC)CN1c1cc(=O)n(C)c2ccc(C#N)nc12 (single isomer, unassigned) [Example 1046]")
0.054

Batch: IC50 for all items listed.
1. C[C@@H]1CN(c2cc(=O)n(C)c3ccc(C#N)nc23)[C@@H](C)CN1C(c1ccc(F)cc1)c1ccccn1 (single isomer, unassigned) [Example 198]
2. C[C@@H]1CN(c2cc(=O)n(C)c3ccc(C#N)nc23)[C@@H](C)CN1C(c1ccc(F)cc1)c1cncnc1 (single isomer, unassigned) [Example 394]

A)
1. 0.87
2. 49

Batch: IC50 for all items listed.
1. C[C@@H]1CN(c2cc(=O)n(C)c3ccc(C#N)nc23)[C@@H](C)CN1Cc1cccc(C(F)(F)F)n1 [Example 278]
2. COCc1cc(F)ccc1C(C)N1C[C@H](C)N(c2cc(=O)n(C)c3ccc(C#N)nc23)C[C@H]1C (single isomer, unassigned) [Example 1315]
3. CC(C)[C@H]1CN(c2c(C#N)c(=O)n(C)c3ccc(Br)nc23)CCN1C(c1ccc(F)cc1)c1ccc(F)cc1 [Example 11]

A)
1.5
1.4
240

---

Molecular target: human DGKα (Homo sapiens, UniProt P23743)
Construct: TVMV protease cleavage site (C); Hexa-His (C); made in house; host or cells: Sf9 insect cells (baculovirus, Bac-to-Bac)
Sequence (P23743 with tags, fused parts or gaps): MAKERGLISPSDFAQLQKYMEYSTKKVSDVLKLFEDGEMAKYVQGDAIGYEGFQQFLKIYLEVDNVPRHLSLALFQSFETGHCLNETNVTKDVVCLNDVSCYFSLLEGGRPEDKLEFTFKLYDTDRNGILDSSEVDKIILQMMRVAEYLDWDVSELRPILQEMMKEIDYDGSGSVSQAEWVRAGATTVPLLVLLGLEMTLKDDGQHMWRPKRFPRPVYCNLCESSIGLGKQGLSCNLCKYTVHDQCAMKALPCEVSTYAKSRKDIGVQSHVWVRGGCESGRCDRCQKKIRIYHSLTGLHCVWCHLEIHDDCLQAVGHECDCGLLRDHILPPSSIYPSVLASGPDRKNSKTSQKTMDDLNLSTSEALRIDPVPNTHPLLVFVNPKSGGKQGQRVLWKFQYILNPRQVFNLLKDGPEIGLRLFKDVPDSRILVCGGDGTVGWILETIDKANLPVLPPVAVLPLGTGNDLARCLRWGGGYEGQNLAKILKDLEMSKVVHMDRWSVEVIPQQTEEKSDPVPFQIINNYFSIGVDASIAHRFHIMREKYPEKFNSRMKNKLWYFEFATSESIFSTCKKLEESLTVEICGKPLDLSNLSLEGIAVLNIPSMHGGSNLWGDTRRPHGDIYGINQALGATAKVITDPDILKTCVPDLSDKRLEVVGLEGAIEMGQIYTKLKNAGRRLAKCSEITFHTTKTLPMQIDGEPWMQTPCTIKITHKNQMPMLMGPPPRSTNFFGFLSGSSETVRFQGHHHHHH
Test: DGKα LIPGLO assay (extruded liposome substrate), in vitro DGK inhibition
Type: biochemical
Conditions: liposome (LIPGLO) assay; read-out: DGKa LIPGLO IC50
measurement type: pIC50
One number for each entry, as −log10 of the molar value.

>>> recorded_number("Cc1oc(-c2cccc(F)c2)nc1CN1C[C@H](C)N(c2cc(=O)n(C)c3ccc(C#N)nc23)C[C@H]1C [Example 1429]")
4.32
>>> recorded_number("C[C@@H]1CN(c2cc(=O)n(C)c3ccc(C#N)nc23)[C@@H](C)CN1C1(c2ccc(F)cc2)CC1 [Example 1454]")
5.80
>>> recorded_number("C[C@@H]1CN(c2cc(=O)n(C)c3ccc(C#N)nc23)[C@@H](C)CN1C(c1ccc(F)cc1)c1cccc2ccnn12 (single isomer, unassigned) [Example 694]")
6.08
>>> recorded_number("C[C@@H]1CN(c2cc(=O)n(C)c3ccc(C#N)nc23)[C@@H](C)CN1C(c1ccc(F)cc1)c1cccc(F)c1 (some centres unmarked) [Example 293]")
6.48
>>> recorded_number("C[C@@H]1CN(C(c2ccc(F)cc2)c2ccc(F)cc2)[C@@H](CO)CN1c1cc(=O)n(C)c2ccc(C#N)nc12 [Example 1172]")
4.66

Batch: pIC50 for all items listed.
1. CC(c1ccc(P(C)(C)=O)cc1)N1C[C@H](C)N(c2cc(=O)n(C)c3ccc(C#N)nc23)C[C@H]1C (some centres unmarked) [Example 1290]
2. Cc1nnc(C(C)N2C[C@H](C)N(c3cc(=O)n(C)c4ccc(C#N)nc34)C[C@H]2C)o1 (some centres unmarked) [Example 1437]
3. C[C@@H]1CN(c2cc(=O)n(C)c3ccc(C#N)nc23)[C@@H](C)CN1C(c1ccc(F)cc1)c1cnn(C)c1 (single isomer, unassigned) [Example 703]

A)
1. 3.77
2. 3.82
3. 5.40

---

Please provide measured pIC50 for the entries that follow.
Target: human DGKα (Homo sapiens)
Construct: TVMV protease cleavage site (C); Hexa-His (C); made in house; host or cells: Sf9 insect cells (baculovirus, Bac-to-Bac)
Assay: DGKα LIPGLO assay (extruded liposome substrate), in vitro DGK inhibition
Assay type: biochemical
Conditions: liposome (LIPGLO) assay; read-out: DGKa LIPGLO IC50
Give bare numbers, as −log10 of the molar value.

Example compounds with recorded pIC50:
>>> recorded_number("CC(C)[C@@H]1CN(C(c2ccc(F)cc2)c2ccc(F)cc2)CCN1c1cc(=O)n(C)c2ccc(C#N)nc12")
3.62
>>> recorded_number("C[C@@H]1CN(c2cc(=O)n(C)c3ccc(C#N)nc23)[C@@H](C)CN1C(c1ccccc1)c1cc(F)cc(F)c1 (stereo partly drawn)")
5.70
>>> recorded_number("CC[C@H]1CN(C(c2ccc(F)cc2)c2ccon2)[C@H](CC)CN1c1cc(=O)n(C)c2ccc(C#N)nc12 (single isomer, unassigned) [Example 1072]")
7.00
>>> recorded_number("C[C@@H]1CN(c2c(C#N)c(=O)n(C)c3cccnc23)[C@@H](C)CN1C(c1ccc(F)cc1)c1ccc(F)cc1")
5.62
>>> recorded_number("C[C@@H]1CN(c2cc(=O)n(C)c3ccc(C#N)nc23)[C@@H](C)CN1C(c1ccc(F)cc1)c1ccc(C(F)F)cc1 (single isomer, unassigned) [Example 666]")
6.14

Batch: pIC50 for all items listed.
1. CC[C@@H]1CN(c2cc(=O)n(C)c3ccc(C#N)nc23)[C@@H](C)CN1C(c1ccc(F)cc1)c1ccc(C(F)(F)F)cn1 (single isomer, unassigned) [Example 1107]
2. CCC(c1ccc(OC(C)C)cc1)N1C[C@H](C)N(c2cc(=O)n(C)c3ccc(C#N)nc23)C[C@H]1CC (single isomer, unassigned) [Example 1447]
3. Cc1ccc(C(c2cncc(F)c2)N2C[C@H](C)N(c3cc(=O)n(C)c4ccc(C#N)nc34)C[C@H]2C)cc1 (single isomer, unassigned) [Example 416]
4. CC(c1cc(C(C)(C)C)on1)N1C[C@H](C)N(c2cc(=O)n(C)c3ccc(C#N)nc23)C[C@H]1C (single isomer, unassigned) [Example 1284]
5. C[C@@H]1CN(c2cc(=O)n(C)c3ccc(C#N)nc23)[C@@H](C)CN1C(c1ccc(F)cc1)c1ccc(P(C)(C)=O)cc1 (single isomer, unassigned) [Example 1293]
6. CC[C@H]1CN(C(C)c2ccc(C(F)(F)F)cc2)[C@H](CC)CN1c1cc(=O)n(C)c2ccc(C#N)nc12 (single isomer, unassigned) [Example 1052]

A)
1. 7.19
2. 6.55
3. 4.68
4. 6.12
5. 4.00
6. 5.60

Batch: pIC50 for all items listed.
1. CC(c1ccc(OC(F)(F)F)cc1F)N1C[C@H](C)N(c2cc(=O)n(C)c3ccc(C#N)nc23)C[C@H]1C (stereo partly drawn) [Example 437]
2. CC(c1cc(C2CC2)on1)N1C[C@H](C)N(c2cc(=O)n(C)c3ccc(C#N)nc23)C[C@H]1C (single isomer, unassigned) [Example 1281]
3. C[C@@H]1CN(c2cc(=O)n(C)c3ccc(C#N)nc23)[C@@H](C)CN1Cc1ccc(OC(F)(F)F)cc1Cl
4. C[C@@H]1CN(c2cc(=O)n(C)c3ccc(C#N)nc23)[C@@H](C)CN1Cc1ccc(OC(F)(F)F)cc1F (single isomer, unassigned) [Example 591]

A)
1. 6.40
2. 6.31
3. 5.72
4. 5.51

---

Molecular target: human DGKα (Homo sapiens)
Construct: TVMV protease cleavage site (C); Hexa-His (C); made in house; host or cells: Sf9 insect cells (baculovirus, Bac-to-Bac)
Assay: DGKα LIPGLO assay (extruded liposome substrate), in vitro DGK inhibition
Format: biochemical
Details: liposome (LIPGLO) assay; read-out: DGKa LIPGLO IC50
measurement type: pIC50
Give bare numbers, as −log10 of the molar value.

Example compounds with recorded pIC50:
>>> recorded_number("CCC(c1ccc(OC(C)(C)C)cc1)N1C[C@H](C)N(c2cc(=O)n(C)c3ccc(C#N)nc23)C[C@H]1C (single isomer, unassigned) [Example 1443]")
7.25
>>> recorded_number("C[C@@H]1CN(c2cc(=O)n(C)c3ccc(C#N)nc23)[C@@H](C)CN1Cc1cc(F)ccc1F [Example 262]")
6.19
>>> recorded_number("C[C@@H]1CN(c2c(F)c(=O)n(C)c3ccc(C#N)nc23)[C@@H](C)CN1C(c1ccc(F)cc1)c1cccc(F)c1 (single isomer, unassigned) [Example 330]")
6.59
>>> recorded_number("Cc1ccc(C(c2ccc(C)cc2)N2C[C@H](C)N(c3cc(=O)n(C)c4ccc(C#N)nc34)C[C@H]2C)cc1 [Example 301]")
5.82
>>> recorded_number("COc1ccc(C(C)N2C[C@H](C)N(c3cc(=O)n(C)c4ccc(C#N)nc34)C[C@H]2C)cc1C(F)(F)F (stereo partly drawn) [Example 1250]")
4.70

// switching to the query compound
Q) Checklist item: pIC50 tested on human DGKα (Homo sapiens), entry C[C@@H]1CN(c2c([N+](=O)[O-])c(=O)n(C)c3ccc(C#N)nc23)[C@@H](C)CN1C(c1ccc(F)cc1)c1ccc(F)cc1 [Example 161] , value?
A) 4.17
